MEASUREMENT TARGET: Serine/threonine-protein phosphatase PP1-alpha catalytic subunit (Homo sapiens) (UniProt P62136)
Sequence (P62136 whole entry, looked up): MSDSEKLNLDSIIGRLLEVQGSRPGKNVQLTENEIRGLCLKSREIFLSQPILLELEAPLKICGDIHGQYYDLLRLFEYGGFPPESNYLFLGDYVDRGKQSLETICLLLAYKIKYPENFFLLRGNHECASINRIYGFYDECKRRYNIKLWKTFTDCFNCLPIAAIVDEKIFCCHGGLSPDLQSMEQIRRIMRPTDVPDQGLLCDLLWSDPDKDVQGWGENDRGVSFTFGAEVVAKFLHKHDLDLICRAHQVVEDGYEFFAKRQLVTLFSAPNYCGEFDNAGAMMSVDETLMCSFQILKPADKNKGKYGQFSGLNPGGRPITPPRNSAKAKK
TEST SUMMARY: PP1alpha phosphatase inhibitors, histone substrate – biochemical, radiolabel, single concentration, powder samples, late-stage follow-up (AID 652228)
CONDITION CONTEXT: purified PP1alpha, 33P-phosphohistone dephosphorylation, scintillation; at 50 µM; stronger effect = higher value
MEASUREMENT TYPE: inhibition (%)

In the examples that follow, each entry is paired with its recorded inhibition.
COMPOUND | RECORDED MEASUREMENT
CN1CCN(C(c2ccccn2)c2cc(Cl)c3cccnc3c2O)CC1 (stereo unspecified) | -38.1
CN1CCN(C(c2ccncc2)c2cc(Cl)c3cccnc3c2O)CC1 (stereo unspecified) | 4.17
CC(C)(C)OC(=O)N1CCN(C(c2ccccn2)c2cc(Cl)c3cccnc3c2O)CC1 (stereo unspecified) | 49.1
CN1CCN(C(c2ccccn2)c2cc(Cl)ccc2O)CC1 (stereo unspecified) | 2.44

[a] CN1CCN(C(c2cccnc2)c2cc(Cl)c3cccnc3c2O)CC1 (stereo unspecified)
[b] Oc1c(C(c2ccccn2)N2CCN(c3ccccc3F)CC2)cc(Cl)c2cccnc12 (stereo unspecified)
Exercise: Which has the higher inhibition, a or b ? Please reply using the label of the selected record.
Key: b
